Molecular target: hIP (Homo sapiens)
Construct: expressed in transfected cells; host or cells: HEK-293 (EBNA)
Sequence (P43119 whole entry): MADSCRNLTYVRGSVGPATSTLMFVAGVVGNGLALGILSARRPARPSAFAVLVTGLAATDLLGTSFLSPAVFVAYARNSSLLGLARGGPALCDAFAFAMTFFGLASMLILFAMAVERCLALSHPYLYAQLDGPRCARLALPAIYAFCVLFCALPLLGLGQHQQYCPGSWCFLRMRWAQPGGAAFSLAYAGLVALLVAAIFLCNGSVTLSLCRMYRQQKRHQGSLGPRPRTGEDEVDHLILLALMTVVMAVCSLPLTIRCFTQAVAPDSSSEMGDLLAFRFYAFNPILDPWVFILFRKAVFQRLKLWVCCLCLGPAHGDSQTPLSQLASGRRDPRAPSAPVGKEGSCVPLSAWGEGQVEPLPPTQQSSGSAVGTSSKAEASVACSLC
Assay: FLIPR calcium signal, hIP
Format: cell-based
Conditions: HEK-293 (EBNA) cells, read-out: FUNCTIONAL EC50 HIP
property.label: EC50 (nM)
Entry rule: numbers only, all in nM.

Record lookup: for hIP (Homo sapiens), what EC50 belongs to O=C(O)CSCCCS[C@H]1C(=O)CC[C@@H]1/C=C/C(O)Cc1csc2ccccc12 (single isomer, unassigned) [drawing 55] ? 389

---

Target: HEP2 (Homo sapiens)
Sequence (P43116 whole entry): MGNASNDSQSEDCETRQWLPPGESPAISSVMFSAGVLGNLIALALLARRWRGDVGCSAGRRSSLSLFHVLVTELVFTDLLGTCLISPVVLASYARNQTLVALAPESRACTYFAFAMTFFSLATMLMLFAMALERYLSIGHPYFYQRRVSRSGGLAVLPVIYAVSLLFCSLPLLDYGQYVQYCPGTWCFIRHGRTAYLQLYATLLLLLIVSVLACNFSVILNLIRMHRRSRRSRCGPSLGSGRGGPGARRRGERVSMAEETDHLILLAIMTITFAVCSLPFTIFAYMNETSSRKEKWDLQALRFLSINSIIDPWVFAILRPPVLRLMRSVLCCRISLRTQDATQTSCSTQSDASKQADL
pIC50: −log10 of the molar value.
property.label: pIC50

a. O=C(O)CSCCCS[C@H]1C(=O)CC[C@@H]1/C=C/C(O)Cc1csc2ccccc12 (single isomer, unassigned) [drawing 55]
b. O=C(O)CSCCCS[C@H]1C(=O)CC[C@@H]1/C=C/C(O)Cc1csc2ccccc12 (single isomer, unassigned) [drawing 56]
Name the one with the greater pIC50 value, either a or b as given. # reply format: chosen label a
(a: 6.22, b: 5.46)
